Test system: KHOS-NP
assay-notes: relative viability vs DMSO control (72 h) (fraction); higher = more viable cells
measurement-parameters: 0.00051 µM
Reported relative viability values for the following compounds.
The reply should be a number, written without any unit.

// solved cases for relative viability follow
>>> measured_result("CCc1cc2c(cc1N1CCC(N3CCOCC3)CC1)C(C)(C)c1[nH]c3cc(C#N)ccc3c1C2=O")
1.09
>>> measured_result("CC[C@H](Nc1ncnc2[nH]cnc12)c1nc2cccc(F)c2c(=O)n1-c1ccccc1")
1.12
>>> measured_result("CC(=O)Nc1cccc(-n2c(=O)n(C3CC3)c(=O)c3c(Nc4ccc(I)cc4F)n(C)c(=O)c(C)c32)c1")
1.09
>>> measured_result("Cc1ccc(NC(=O)c2ccc(CN3CCN(C)CC3)cc2)cc1Nc1nc(-c2cccnc2)cs1")
1.05
>>> measured_result("O=C(Nc1cnn2ccc(N3CCC[C@@H]3c3cc(F)ccc3F)nc12)N1CC[C@H](O)C1")
1.09
>>> measured_result("Cn1cnc2c(F)c(Nc3ccc(Br)cc3F)c(C(=O)NOCCO)cc21")
1.09

Entry `Cc1cc(Nc2ncnc3ccc(NC4=NC(C)(C)CO4)cc23)ccc1Oc1ccn2ncnc2c1` , relative viability reported as 1.14

Entry `CC1(C)CNc2cc(NC(=O)c3cccnc3NCc3ccncc3)ccc21` , relative viability reported as 1.04

Entry `Cc1cc(C)c(/C=C2\C(=O)Nc3ccccc32)[nH]1` , relative viability reported as 1.04

Entry `Cc1ccc(F)c(NC(=O)Nc2ccc(-c3cccc4[nH]nc(N)c34)cc2)c1` , relative viability reported as 1.1

Entry `CC(C)N1CCN(Cc2cnc(-c3cc(-c4cccc5[nH]ccc45)cc4[nH]ncc34)o2)CC1` , relative viability reported as 1.02

Entry `C[C@@H](c1ccc2nccn2c1)n1nnc2ncc(-c3cnn(C)c3)nc21` , relative viability reported as 1.09

Entry `COc1c(OCCCN2CCOCC2)ccc2c1N=C(NC(=O)c1cnc(N)nc1)N1CCN=C21` , relative viability reported as 1.1
